src = patent US20100056596A1

- Test system: HIV-1 isolates, Mutant 9
- ASSAY PROCEDURE: In vitro drug sensitivity of HIV-1 laboratory isolates, Mutant 9
- Format: cell-based
- PARTICULARS: Mutant 9; read-out: IC50 Mutant 9
QUANTITY MEASURED: pIC50
Remember the convention: pIC50 equals -log10 of concentration in molar.

COMPOUND | MEASURED TARGET | pIC50
CC(=O)NCc1coc2ccc(S(=O)(=O)N(CC(C)C)C[C@@H](O)[C@H](Cc3ccccc3)NC(=O)OC3COC4OCCC34)cc12 (stereo partly drawn) [Compound 107] | HIV-1 isolates, Mutant 9 | 7.38

// switching to the query compound
GET /values?item= CC(C)CN(C[C@@H](O)[C@H](Cc1ccccc1)NC(=O)OC1COC2OCCC12)S(=O)(=O)c1ccc2occ(CNCC(=O)OC(C)(C)C)c2c1 (stereo partly drawn) [Compound 110] &system= HIV-1 isolates, Mutant 9 returns pIC50: 7.21
